Details: in isobutanol, 283.15 K

[
  {
    "Smiles data": "NC(=O)C[C@H](NC(=O)OCc1ccccc1)C(=O)O",
    "solubility (mole fraction)": "4.91e-05"
  }
]

---

Settings: in acetonitrile, 283.15 K

[
  {
    "Smiles data": "NC(=O)C[C@H](NC(=O)OCc1ccccc1)C(=O)O",
    "solubility (mole fraction)": "7.48e-05"
  }
]

---

Settings: in acetonitrile, 298.15 K

[
  {
    "Smiles data": "NC(=O)C[C@H](NC(=O)OCc1ccccc1)C(=O)O",
    "solubility (mole fraction)": 0.000305
  }
]

---

Settings: in n-propanol, 318.15 K

[
  {
    "Smiles data": "NC(=O)C[C@H](NC(=O)OCc1ccccc1)C(=O)O",
    "solubility (mole fraction)": 0.00142
  }
]

---

Conditions: in n-pentanol, 303.15 K

[
  {
    "Smiles data": "NC(=O)C[C@H](NC(=O)OCc1ccccc1)C(=O)O",
    "solubility (mole fraction)": 0.000415
  }
]

---

Details: in ethanol, 288.15 K
Metric: solubility (mole fraction)

[
  {
    "Smiles data": "NC(=O)C[C@H](NC(=O)OCc1ccccc1)C(=O)O",
    "Observed result": 0.000463
  }
]

---

Conditions: in water, 293.15 K

[
  {
    "Smiles data": "NC(=O)C[C@H](NC(=O)OCc1ccccc1)C(=O)O",
    "solubility (mole fraction)": "4.02e-05"
  }
]

---

Settings: in acetonitrile, 313.15 K
Metric: solubility (mole fraction)

[
  {
    "Smiles data": "NC(=O)C[C@H](NC(=O)OCc1ccccc1)C(=O)O",
    "Observed result": 0.000599
  }
]

---

Settings: in isopropanol, 323.15 K
Metric: solubility (mole fraction)

[
  {
    "Smiles data": "NC(=O)C[C@H](NC(=O)OCc1ccccc1)C(=O)O",
    "Observed result": 0.00177
  }
]

---

Details: in ethanol, 298.15 K

[
  {
    "Smiles data": "NC(=O)C[C@H](NC(=O)OCc1ccccc1)C(=O)O",
    "solubility (mole fraction)": 0.00114
  }
]

---

Settings: in 1,4-dioxane, 288.15 K

[
  {
    "Smiles data": "NC(=O)C[C@H](NC(=O)OCc1ccccc1)C(=O)O",
    "solubility (mole fraction)": 0.00212
  }
]

---

Conditions: in isobutanol, 298.15 K
Metric: solubility (mole fraction)

[
  {
    "Smiles data": "NC(=O)C[C@H](NC(=O)OCc1ccccc1)C(=O)O",
    "Observed result": 0.000157
  }
]

---

Settings: in n-propanol, 323.15 K

[
  {
    "Smiles data": "NC(=O)C[C@H](NC(=O)OCc1ccccc1)C(=O)O",
    "solubility (mole fraction)": 0.00175
  }
]

---

Settings: in acetone, 308.15 K

[
  {
    "Smiles data": "NC(=O)C[C@H](NC(=O)OCc1ccccc1)C(=O)O",
    "solubility (mole fraction)": 0.00136
  }
]

---

Settings: in acetone, 318.15 K
Metric: solubility (mole fraction)

[
  {
    "Smiles data": "NC(=O)C[C@H](NC(=O)OCc1ccccc1)C(=O)O",
    "Observed result": 0.00194
  }
]

---

Details: in 2-butanone, 323.15 K
Metric: solubility (mole fraction)

[
  {
    "Smiles data": "NC(=O)C[C@H](NC(=O)OCc1ccccc1)C(=O)O",
    "Observed result": 0.00128
  }
]

---

Details: in isopropanol, 303.15 K

[
  {
    "Smiles data": "NC(=O)C[C@H](NC(=O)OCc1ccccc1)C(=O)O",
    "solubility (mole fraction)": 0.000834
  }
]

---

Details: in n-pentanol, 293.15 K
Metric: solubility (mole fraction)

[
  {
    "Smiles data": "NC(=O)C[C@H](NC(=O)OCc1ccccc1)C(=O)O",
    "Metric": "solubility (mole fraction)",
    "Observed result": 0.00027
  }
]

---

Conditions: in acetonitrile, 323.15 K

[
  {
    "Smiles data": "NC(=O)C[C@H](NC(=O)OCc1ccccc1)C(=O)O",
    "solubility (mole fraction)": 0.000775
  }
]

---

Details: in methanol, 283.15 K

[
  {
    "Smiles data": "NC(=O)C[C@H](NC(=O)OCc1ccccc1)C(=O)O",
    "solubility (mole fraction)": 0.00174
  }
]

---

Conditions: in n-butanol, 293.15 K

[
  {
    "Smiles data": "NC(=O)C[C@H](NC(=O)OCc1ccccc1)C(=O)O",
    "solubility (mole fraction)": 0.000361
  }
]

---

Conditions: in 1,4-dioxane, 323.15 K
Metric: solubility (mole fraction)

[
  {
    "Smiles data": "NC(=O)C[C@H](NC(=O)OCc1ccccc1)C(=O)O",
    "Observed result": 0.0057
  }
]

---

Settings: in methanol, 323.15 K
Metric: solubility (mole fraction)

[
  {
    "Smiles data": "NC(=O)C[C@H](NC(=O)OCc1ccccc1)C(=O)O",
    "Observed result": 0.00801
  }
]

---

Settings: in isobutanol, 303.15 K

[
  {
    "Smiles data": "NC(=O)C[C@H](NC(=O)OCc1ccccc1)C(=O)O",
    "solubility (mole fraction)": 0.000269
  }
]

---

Conditions: in methanol, 308.15 K
Metric: solubility (mole fraction)

[
  {
    "Smiles data": "NC(=O)C[C@H](NC(=O)OCc1ccccc1)C(=O)O",
    "Observed result": 0.00413
  }
]

---

Settings: in acetonitrile, 303.15 K

[
  {
    "Smiles data": "NC(=O)C[C@H](NC(=O)OCc1ccccc1)C(=O)O",
    "solubility (mole fraction)": 0.000395
  }
]

---

Conditions: in ethanol, 303.15 K

[
  {
    "Smiles data": "NC(=O)C[C@H](NC(=O)OCc1ccccc1)C(=O)O",
    "solubility (mole fraction)": 0.00161
  }
]

---

Conditions: in acetone, 288.15 K

[
  {
    "Smiles data": "NC(=O)C[C@H](NC(=O)OCc1ccccc1)C(=O)O",
    "solubility (mole fraction)": 0.000777
  }
]

---

Conditions: in methanol, 288.15 K

[
  {
    "Smiles data": "NC(=O)C[C@H](NC(=O)OCc1ccccc1)C(=O)O",
    "solubility (mole fraction)": 0.00188
  }
]

---

Conditions: in n-butanol, 298.15 K

[
  {
    "Smiles data": "NC(=O)C[C@H](NC(=O)OCc1ccccc1)C(=O)O",
    "solubility (mole fraction)": 0.000476
  }
]

---

Conditions: in n-propanol, 293.15 K

[
  {
    "Smiles data": "NC(=O)C[C@H](NC(=O)OCc1ccccc1)C(=O)O",
    "solubility (mole fraction)": 0.000439
  }
]

---

Details: in acetone, 293.15 K
Metric: solubility (mole fraction)

[
  {
    "Smiles data": "NC(=O)C[C@H](NC(=O)OCc1ccccc1)C(=O)O",
    "Observed result": 0.000832
  }
]

---

Details: in n-propanol, 313.15 K

[
  {
    "Smiles data": "NC(=O)C[C@H](NC(=O)OCc1ccccc1)C(=O)O",
    "solubility (mole fraction)": 0.00116
  }
]

---

Settings: in ethanol, 313.15 K

[
  {
    "Smiles data": "NC(=O)C[C@H](NC(=O)OCc1ccccc1)C(=O)O",
    "solubility (mole fraction)": 0.00265
  }
]

---

Settings: in isobutanol, 293.15 K
Metric: solubility (mole fraction)

[
  {
    "Smiles data": "NC(=O)C[C@H](NC(=O)OCc1ccccc1)C(=O)O",
    "Observed result": "9.5e-05"
  }
]

---

Settings: in acetone, 298.15 K

[
  {
    "Smiles data": "NC(=O)C[C@H](NC(=O)OCc1ccccc1)C(=O)O",
    "solubility (mole fraction)": 0.000971
  }
]

---

Details: in acetonitrile, 288.15 K
Metric: solubility (mole fraction)

[
  {
    "Smiles data": "NC(=O)C[C@H](NC(=O)OCc1ccccc1)C(=O)O",
    "Metric": "solubility (mole fraction)",
    "Observed result": 0.000149
  }
]

---

Details: in 2-butanone, 308.15 K

[
  {
    "Smiles data": "NC(=O)C[C@H](NC(=O)OCc1ccccc1)C(=O)O",
    "solubility (mole fraction)": 0.00086
  }
]

---

Settings: in 1,4-dioxane, 308.15 K
Metric: solubility (mole fraction)

[
  {
    "Smiles data": "NC(=O)C[C@H](NC(=O)OCc1ccccc1)C(=O)O",
    "Metric": "solubility (mole fraction)",
    "Observed result": 0.00358
  }
]

Hey, just so you know, these numbers are from BigSolDB 2.1.
